// data source = the supplement of paper PMC10567573

B1: PBXIP1 (parent)
chain: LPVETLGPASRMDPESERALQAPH

- Variants of: B1
- Assay explanation: protein stability index of a GFP-peptide fusion (GPS, HEK-293T) (PSI 1-6); higher = more stable;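 note: lentivirally expressed fusions sorted by FACS into six bins by GFP to DsRed ratio, PSI derived from sequencing read proportions per bin multiplied by bin number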
- Stated conditions: c terminus: a fixed tail appended
Measured property: protein stability index
One number for each entry.

Example entries begin here.
- Biosequence: "LPVETLGPASRMDPESERVLQAPH [A19V]"
  protein stability index: 4.46
- Biosequence: "NPVETLGPASRMDPESERALQAPH [L1N]"
  protein stability index: 5.38
- Biosequence: "DPVETLGPASRMDPESERALQAPH [L1D]"
  protein stability index: 5.07
- Biosequence: "LPVETLGIASRMDPESERALQAPH [P8I]"
  protein stability index: 4.89
- Biosequence: "LPVETLGPASRMDMESERALQAPH [P14M]"
  protein stability index: 4.04
- Biosequence: "LNVETLGPASRMDPESERALQAPH [P2N]"
  protein stability index: 4.6
- Biosequence: "LPVETLGPASRMDPEEERALQAPH [S16E]"
  protein stability index: 4.48
- Biosequence: "LPVETLGPASRMDEESERALQAPH [P14E]"
  protein stability index: 4.61
- Biosequence: "LPVETNGPASRMDPESERALQAPH [L6N]"
  protein stability index: 5.42
- Biosequence: "LPLETLGPASRMDPESERALQAPH [V3L]"
  protein stability index: 4.63

Please examine the following record next.
Please list protein stability index recorded for the variant LPVETLGPASRMDPESETALQAPH [R18T] 4.82
